Reported composite z-score by item:
- test_system: Torsin-1A-interacting protein 1 (Homo sapiens) (UniProt Q5JTV8)
- Sequence (Q5JTV8 whole entry, looked up): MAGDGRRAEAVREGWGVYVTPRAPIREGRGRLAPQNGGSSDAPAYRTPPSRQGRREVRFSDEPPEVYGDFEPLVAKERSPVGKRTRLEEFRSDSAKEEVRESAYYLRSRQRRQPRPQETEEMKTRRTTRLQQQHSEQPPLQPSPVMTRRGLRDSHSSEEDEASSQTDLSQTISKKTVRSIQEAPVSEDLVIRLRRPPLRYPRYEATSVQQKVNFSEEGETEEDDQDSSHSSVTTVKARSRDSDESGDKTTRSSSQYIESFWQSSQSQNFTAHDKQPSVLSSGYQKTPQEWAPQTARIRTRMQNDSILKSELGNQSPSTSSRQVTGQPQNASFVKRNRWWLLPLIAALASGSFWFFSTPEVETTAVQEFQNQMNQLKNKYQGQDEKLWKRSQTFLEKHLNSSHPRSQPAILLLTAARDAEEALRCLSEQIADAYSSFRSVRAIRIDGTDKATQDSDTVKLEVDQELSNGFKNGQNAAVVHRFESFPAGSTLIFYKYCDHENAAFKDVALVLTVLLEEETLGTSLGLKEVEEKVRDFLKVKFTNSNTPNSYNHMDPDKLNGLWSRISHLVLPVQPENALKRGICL
- run_description: LAP1 binders from COS7 cell lysate, primary screen, small-molecule microarray, 635/667 nm fluorescence (AID 1116)
- run_parameters: COS7-hLAP1 lysate binding, 635 nm fluorescence, higher = more signal
Provide a numeric answer; units are not to be included.

COCCOC(=O)N1C(=O)[C@@]2(c3cc(C#CC4=CCCCC4)ccc31)[C@H](C(=O)N1CCc3cc(OC)c(OC)cc3C1)[C@H]1C(=O)O[C@H](c3ccccc3)[C@H](c3ccccc3)N1[C@@H]2c1ccc(OCCO)cc1 | 0.929
O=C1C2C=CC(C(O)C(c3ccccc3)c3ccccc3)N(n3cnnc3)C2C(=O)N1Cc1ccccc1 (stereo not drawn) | 1.57

With those in mind, consider the next molecule.
# input For CC(C)(C)OC(=O)CC[C@@]1(C(=O)NCC(O)CO)N=C(c2ccc(OCCCO)cc2)O[C@@H]1c1ccccc1N=[N+]=[N-] (stereo partly drawn) , what is its reported composite z-score?
# output 2.29

###

- run_description: CREB reporter modulators under forskolin, primary screen, cell-based, PC12, CRE-LacZ reporter, forskolin-stimulated (AID 1146);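 also: PC12 cells with 6xCRE LacZ reporter stimulated by forskolin 10 µM; beta-galactosidase reporter signal reflecting CREB driven transcription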
- run_parameters: luminescence, 4.5 h, higher = more signal, called active from +8 up or from −8 down
Answer false if z-score is under -0.7, and true if it is -0.7 or more.

Look over these answered cases.
COCCCN1C(=O)[C@@]2(Cc3ccccc31)c1ccccc1C(=O)N(Cc1ccccc1C(F)(F)F)[C@H]2c1ccc(CO)cc1 | true
CC1CC/C=C\[C@H]2OC34C=CCN(Cn5nnc6ccccc65)C(=O)[C@H]3N(C(CO)C(C)C)C(=O)[C@@H]4C2C(=O)O1 (some centres not stated) | false
CCOC(=O)C1=CCC(c2ccc(C)cc2)N(S(=O)(=O)c2ccc(C)cc2)C1 (configuration not stated) | true
COc1ccc([Si](C)(C)[C@@H]2[C@@H](CCO)O[C@]3(C(=O)N(Cc4ccc(N5C(=O)COc6ccccc65)cc4)c4ccccc43)[C@H]2C)cc1 | true

Kindly consider the entry below.
# input Identify whether the reported z-score of the following compound is -0.7 or greater: O=C1NC(=O)C2C1C=CC(C(O)C(c1ccccc1)c1ccccc1)N2Nc1ccc(Cl)cc1Cl (configuration not stated)
# output true

###

- Tested on: PRMT1 (protein arginine N-methyltransferase 1)
- run_description: PRMT1 binders on small-molecule microarrays, primary screen, biochemical, small-molecule microarray, 635 nm fluorescence (AID 1088);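 also: binding of Prmt1 protein to compounds spotted on small-molecule microarray slides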
- run_parameters: small-molecule microarray binding, higher = more signal
Reported composite z-score by item:
Provide a numeric answer; units are not to be included.

Check out these entries, answers already filled in.
C=C(CCCC)/C(=C/C[C@@H](OC(C)=O)c1ccccc1OCCO)c1cnc2ccccc2c1 | 1.3
CCOC(=O)C[C@H]1[C@H](OC(=O)Cc2ccc3c(c2)OCO3)[C@@H](NC(=O)c2ccc(-c3ccccc3)cc2)c2cc(OCCCO)ccc2N1C(=O)Cc1ccc(OC)cc1 | 0.81
C=C(/C(=C/C[C@@H](OC(C)=O)c1ccc(OCCO)cc1)c1cnc2ccccc2c1)C(C)C | 1.26
NCCCCCNC(=O)[C@@H]1C[C@@H]2C(=O)N[C@@H](Cc3ccccc3)C(=O)N2[C@@H]1c1cccc(OCCO)c1 | 0.715

# input For [N-]=[N+]=Nc1ccccc1[C@H]1OC(c2ccc(OCCCO)cc2)=N[C@@]1(Cc1ccccc1)C(=O)O , what is its reported composite z-score?
# output 1.3

# input For C=C(CCCC)C(=O)CC[C@H](OC(=O)c1cccnc1)c1ccccc1OCCO , what is its reported composite z-score?
# output 0.449

# input For O=C1c2ccccc2[C@@]2(Cc3ccccc3N(CCN3CCOCC3)C2=O)[C@H](c2ccc(CO)cc2)N1Cc1ccccc1 , what is its reported composite z-score?
# output 1.08

# input For Cc1ccc(S[C@]2(C(=O)NC3CC3)CC(=O)N(C3Cc4ccccc4C3)[C@@H]2c2ccc(CO)cc2)cc1 , what is its reported composite z-score?
# output 1.38

# input For C#CCN(Cc1ccccc1Br)C(/C=C/c1ccccc1)CO (centres undefined) , what is its reported composite z-score?
# output -0.69

# input For COc1ccc(C(=O)Nc2cccc(CN3C(=O)[C@]4(O[C@H](CCO)[C@@H]([Si](C)(C)c5ccc(OC)cc5)[C@@H]4C)c4ccccc43)c2)cc1 , what is its reported composite z-score?
# output 1.56

# input For COC(=O)[C@@]1(Cc2ccc(F)cc2)[C@H]2c3cc(C(=O)N4CCCC4)n(Cc4cc(C)n(C)n4)c3C[C@H]2CN1C(=O)c1ccccc1 , what is its reported composite z-score?
# output 0.364

# input For C=CCOC(=O)[C@H]1[C@@H]2C(=O)O[C@@H](c3ccccc3)[C@@H](c3ccccc3)N2[C@@H](c2ccc(OCCOC(=O)[C@@H]3C[C@@H]4C(=O)N[C@@H](CCCCN(C)C)C(=O)N4[C@@H]3c3ccc(O)cc3)cc2)[C@]12C(=O)Nc1ccc(I)cc12 , what is its reported composite z-score?
# output 1.46

# input For C=CCNC(=O)[C@@H]1[C@H]2C(=O)O[C@H](c3ccccc3)[C@H](c3ccccc3)N2[C@H](c2ccccc2OCCO)[C@@]12C(=O)N(C(=O)OCCOC)c1ccc(C#CCNC(N)=O)cc12 , what is its reported composite z-score?
# output 1.46

# input For CCc1oc(CC[C@@H](CO)NC(=O)NCCn2cc(C3(O)CCCCC3)nn2)c(C(=O)OC)c1C(=O)OC , what is its reported composite z-score?
# output 1.32

# input For [N-]=[N+]=NCc1ccccc1[C@H]1OC(c2ccc(OCCCO)cc2)=N[C@@]1(Cc1ccccc1)C(=O)NCc1ccccc1 , what is its reported composite z-score?
# output 1.48

# input For Cc1ccc(S[C@]2(C(=O)NC(C)C)CC(=O)N(Cc3ccccc3Cl)[C@@H]2c2ccc(CO)cc2I)cc1 , what is its reported composite z-score?
# output 1.14

Data provenance is PubChem BioAssay.
